B1: LINE1-mini (parent)
chain: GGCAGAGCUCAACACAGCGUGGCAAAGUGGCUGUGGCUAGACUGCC

- Variants of: B1
- measurement_protocol: self-cleavage, relative activity (ratio to wild type); higher = more cleavage; in vitro, sequencing; the parent is a self-cleaving ribozyme
property_label: self-cleavage
Lab note: jot down the number only; don't add units.

**Query** Bench note: what self-cleavage did G21A U43C show?
**Result** 0.18

---
**Query** Requested field: self-cleavage. Item: C8U G17U
**Result** 0.14

**Query** Query (variant): A12G U38G ; field requested: self-cleavage
**Result** 0.02

**Query** What does the data say about its self-cleavage? Entry: A6C A12G
**Result** 0.04

**Query** Which measured self-cleavage value corresponds to G21A U38A ?
**Result** 0.89

**Query** Fill blank: measured self-cleavage of the variant G1U C8U is ____.
**Result** 0.12

**Query** Need self-cleavage, item G33U
**Result** 0.11

**Query** Can you share its self-cleavage? I mean this variant: C8G C46G
**Result** 0.11

**Query** Item G33A G35A has what recorded self-cleavage?
**Result** 0.07

**Query** May I ask what self-cleavage has been recorded for G5A U32A ?
**Result** 0.06

**Query** Entry G1C G17A has what self-cleavage?
**Result** 0.02

**Query** Given the entry C3G C46G , report its measured self-cleavage.
**Result** 0.35

**Query** Fill in: self-cleavage of U9A A14G is ___
**Result** 0.17

**Query** Entry under review: C8U G21C . Reported self-cleavage?
**Result** 0.25

**Query** Fill in: self-cleavage of A4U C42A is ___
**Result** 0.11

**Query** Param item = G1C C46A ; retrieve measured self-cleavage.
**Result** 0.28

**Query** Given the entry C8U G17A , report its measured self-cleavage.
**Result** 0.15
